System: Streptococcus pneumoniae
assay_name: Antibacterial activity against erythromycin-resistant ermB expressing Streptococcus pneumoniae 1095
Format: functional
details: Streptococcus pneumoniae; read-out: MIC
Recorded MIC by entry

Asked: Lab note: need MIC with Streptococcus pneumoniae for entry CC[C@H]1OC(=O)[C@H](C)C(=O)[C@H](C)[C@@H](O[C@@H]2O[C@H](C)C[C@H](N(C)C)[C@H]2O)[C@](C)(OC)C[C@@H](C)C(=O)[C@H](C)[C@H]2N(CNC(=O)OCc3ccc4cccnc4c3)C(=O)O[C@]12C , please look it up.
Given back: < 0.063 µg/mL

Asked: Would you kindly repeat that for CC[C@H]1OC(=O)[C@H](C)C(=O)[C@H](C)[C@@H](O[C@@H]2O[C@H](C)C[C@H](N(C)C)[C@H]2O)[C@](C)(OC)C[C@@H](C)C(=O)[C@H](C)[C@H]2N(CNC(=O)NCc3ccc4nccnc4c3)C(=O)O[C@]12C ?
Given back: < 0.063 µg/mL

====

Listed next: entries and their corresponding MIC.
System: Streptococcus pneumoniae
assay_name: Antibacterial activity against erythromycin-resistant ermB expressing Streptococcus pneumoniae 1095
Format: functional
details: Streptococcus pneumoniae; read-out: MIC

Asked: Can you share its MIC? I mean this compound: CC[C@H]1OC(=O)[C@H](C)C(=O)[C@H](C)[C@@H](O[C@@H]2O[C@H](C)C[C@H](N(C)C)[C@H]2O)[C@](C)(OC)C[C@@H](C)C(=O)[C@H](C)[C@H]2N(CNC(=O)Nc3cnc4ccccc4c3)C(=O)O[C@]12C
Given back: 0.25 µg/mL

Asked: Ok, now CC[C@H]1OC(=O)[C@H](C)C(=O)[C@H](C)[C@@H](O[C@@H]2O[C@H](C)C[C@H](NC)[C@H]2O)[C@](C)(OC)C[C@@H](C)C(=O)[C@H](C)[C@H]2N(CNC(=O)OCc3cnc4ccccc4c3)C(=O)O[C@]12C
Given back: < 0.063 µg/mL

Asked: # repeat for CC[C@H]1OC(=O)[C@H](C)C(=O)[C@H](C)[C@@H](O[C@@H]2O[C@H](C)C[C@H](N(C)C)[C@H]2O)[C@](C)(OC)C[C@@H](C)C(=O)[C@H](C)[C@H]2N(CNC(=O)OCc3ccc4ncccc4c3)C(=O)O[C@]12C
Given back: 0.25 µg/mL

Asked: Field entry: CC[C@H]1OC(=O)[C@@](C)(F)C(=O)[C@H](C)[C@@H](O[C@@H]2O[C@H](C)C[C@H](N(C)C)[C@H]2O)[C@](C)(OC)C[C@@H](C)C(=O)[C@H](C)[C@H]2N(CNC(=O)OCc3ccc4nccnc4c3)C(=O)O[C@]12C
Given back: < 0.063 µg/mL

Asked: And then CC[C@H]1OC(=O)[C@H](C)C(=O)[C@H](C)[C@@H](O[C@@H]2O[C@H](C)C[C@H](N(C)C)[C@H]2O)[C@](C)(OC)C[C@@H](C)C(=O)[C@H](C)[C@H]2N(CNC(=O)NCc3cncc4ccccc34)C(=O)O[C@]12C , what is it?
Given back: < 0.063 µg/mL

***
Asked: Returns the measured MIC for the input compound. Input: CC[C@H]1OC(=O)[C@@](C)(F)C(=O)[C@H](C)[C@@H](O[C@@H]2O[C@H](C)C[C@H](N(C)C)[C@H]2O)[C@](C)(OC)C[C@@H](C)C(=O)[C@H](C)[C@H]2N(CNC(=O)NCc3ccc4nccnc4c3)C(=O)O[C@]12C
Given back: < 0.063 µg/mL

====

Test system: Streptococcus pneumoniae
assay_name: Antibacterial activity against erythromycin-resistant ermB expressing Streptococcus pneumoniae 1095
Format: functional
details: Streptococcus pneumoniae; read-out: MIC
assay_metric: MIC

A selection of reference data follows.
Asked: Looking for the measured MIC of CC[C@H]1OC(=O)[C@H](C)C(=O)[C@H](C)[C@@H](O[C@@H]2O[C@H](C)C[C@H](N(C)C)[C@H]2O)[C@](C)(OC)C[C@@H](C)C(=O)[C@H](C)[C@H]2N(CNC(=O)OCc3cnc4ccccc4n3)C(=O)O[C@]12C , can you help?
Given back: 0.25 µg/mL

Asked: Same question for CC[C@H]1OC(=O)[C@H](C)C(=O)[C@H](C)[C@@H](O[C@@H]2O[C@H](C)C[C@H](N(C)C)[C@H]2O)[C@](C)(OC)C[C@@H](C)C(=O)[C@H](C)[C@H]2N(CNC(=O)OCc3ccc4nccnc4c3)C(=O)O[C@]12C please.
Given back: < 0.063 µg/mL

Asked: Param item: CC[C@H]1OC(=O)[C@@](C)(F)C(=O)[C@H](C)[C@@H](O[C@@H]2O[C@H](C)C[C@H](N(C)C)[C@H]2O)[C@](C)(OC)C[C@@H](C)C(=O)[C@H](C)[C@H]2N(CNC(=O)OCc3cccc4nccnc34)C(=O)O[C@]12C
Given back: < 0.063 µg/mL

Next compound, MIC to be filled in.
Asked: Fill blank: measured MIC of the compound CC[C@H]1OC(=O)[C@H](C)C(=O)[C@H](C)[C@@H](O[C@@H]2O[C@H](C)C[C@H](N(C)C)[C@H]2O)[C@](C)(OC)C[C@@H](C)C(=O)[C@H](C)[C@H]2N(CCCCn3cnc(-c4cccnc4)c3)C(=O)O[C@]12C [TELITHROMYCIN] is ____.
Given back: < 0.063 µg/mL

====

# MIC annotations
Test system: Streptococcus pneumoniae
assay_name: Antibacterial activity against erythromycin-resistant ermB expressing Streptococcus pneumoniae 1095
Type: functional
details: Streptococcus pneumoniae; read-out: MIC
Output spec: scalar in µg/mL, unitless text.

// known answers, use as guide
Asked: What value of MIC has been recorded for this entry: CC[C@H]1OC(=O)[C@H](C)C(=O)[C@H](C)[C@@H](O[C@@H]2O[C@H](C)C[C@H](N(C)C)[C@H]2O)[C@](C)(OC)C[C@@H](C)C(=O)[C@H](C)[C@H]2N(CNC(=O)NCc3ccc4ncccc4c3)C(=O)O[C@]12C
Given back: 0.25

Asked: Check CC[C@H]1OC(=O)[C@H](C)C(=O)[C@H](C)[C@@H](O[C@@H]2O[C@H](C)C[C@H](N(C)C)[C@H]2O)[C@](C)(OC)C[C@@H](C)C(=O)[C@H](C)[C@H]2N(CNC(=O)OCc3cccc4ncccc34)C(=O)O[C@]12C too.
Given back: 0.125

Let us examine a further case.
Asked: Give the measured MIC of CC[C@H]1OC(=O)[C@H](C)C(=O)[C@H](C)[C@@H](O[C@@H]2O[C@H](C)C[C@H](N(C)C)[C@H]2O)[C@](C)(OC)C[C@@H](C)C(=O)[C@H](C)[C@H]2N(CNC(=O)OCc3ccnc4ccccc34)C(=O)O[C@]12C .
Given back: 0.5

====

Item-by-item account of MIC
Tested on: Streptococcus pneumoniae
assay_name: Antibacterial activity against erythromycin-resistant ermB expressing Streptococcus pneumoniae 1095
Format: functional
details: Streptococcus pneumoniae; read-out: MIC

Previously resolved entries follow.
Asked: Field: MIC (Streptococcus pneumoniae). Entry: CC[C@H]1OC(=O)[C@H](C)C(=O)[C@H](C)[C@@H](O[C@@H]2O[C@H](C)C[C@H](N(C)C)[C@H]2O)[C@](C)(OC)C[C@@H](C)C(=O)[C@H](C)[C@H]2N(CCNC(=O)NCc3cnc4ccccc4c3)C(=O)O[C@]12C
Given back: > 64 µg/mL

Asked: Try CC[C@H]1OC(=O)[C@H](C)C(=O)[C@H](C)[C@@H](O[C@@H]2O[C@H](C)C[C@H](N(C)C)[C@H]2O)[C@](C)(OC)C[C@@H](C)C(=O)[C@H](C)[C@H]2N(CNC(=O)NCc3ccc4cccnc4c3)C(=O)O[C@]12C next.
Given back: < 0.063 µg/mL

Okay, next one:
Asked: Query the reported MIC for Streptococcus pneumoniae; item: CC[C@H]1OC(=O)[C@H](C)C(=O)[C@H](C)[C@@H](O[C@@H]2O[C@H](C)C[C@H](N(C)C)[C@H]2O)[C@](C)(OC)C[C@@H](C)C(=O)[C@H](C)[C@H]2N(CNC(=O)NCc3cnc4ccccc4n3)C(=O)O[C@]12C
Given back: < 0.063 µg/mL
